Format: in vivo
CONDITIONS_USED: female, human, plasma, oral, AUC, female patients, n = 12; up to 3 h; median [interquartile range]
MEASUREMENT_TYPE: AUC (µM·h)
Kindly answer with a numeric value in µM·h, unit omitted.

Short answer for N[C@@H](Cc1ccc(O)c(O)c1)C(=O)O [levodopa] : AUC was 12.7

====

Type: in vivo
CONDITIONS_USED: male, human, plasma, oral, Tmax, male patients, n = 9; median [interquartile range]
MEASUREMENT_TYPE: Tmax

Short answer for N[C@@H](Cc1ccc(O)c(O)c1)C(=O)O : Tmax was 45 min

====

Format: in vivo
CONDITIONS_USED: male, human, plasma, oral, Cmax, male patients, n = 9; median [interquartile range]
MEASUREMENT_TYPE: Cmax
Hi, when you answer, please include the unit after the number. Thanks!

Short answer for N[C@@H](Cc1ccc(O)c(O)c1)C(=O)O [levodopa] : Cmax was 4.88 µM
